Tested on: Human erythrocytes
Experiment: hemotoxicity determination (hemolytic activity)
Type: cell-based
Measurement name: Hemotoxi EH50

Asked: Suppose we examine the molecule C[C@@H]1[C@H](O)[C@@H](C)/C=C/C=C/C=C/C=C/C=C/C=C/C=C/[C@H](O[C@@H]2O[C@H](C)[C@@H](O)[C@H](NC(=S)NCCN3CCCCC3)[C@@H]2O)C[C@@H]2O[C@](O)(C[C@@H](O)C[C@@H](O)[C@H](O)CC[C@@H](O)C[C@@H](O)CC(=O)O[C@H]1C)C[C@H](O)[C@H]2C(=O)O ; what Hemotoxi EH50 value has been reported?
Given back: >100 µg/mL

Asked: Suppose we examine the molecule C[C@@H]1[C@H](O)[C@@H](C)/C=C/C=C/C=C/C=C/C=C/C=C/C=C/[C@H](O[C@@H]2O[C@H](C)[C@@H](O)[C@H](NC3CC(=O)N(c4ccc([N+](=O)[O-])cc4)C3=O)[C@@H]2O)C[C@@H]2O[C@](O)(C[C@@H](O)C[C@@H](O)[C@H](O)CC[C@@H](O)C[C@@H](O)CC(=O)O[C@H]1C)C[C@H](O)[C@H]2C(=O)O (some centres unmarked) ; what Hemotoxi EH50 value has been reported?
Given back: >100 µg/mL

----------
Tested on: LLC-PK1 cells
Experiment: cytotoxic activity against mammalian cells in tissue culture (MTT)
Type: cell-based, pig
Measurement name: IC50 (cytotoxic activity)

Asked: Suppose we examine the compound C[C@@H]1[C@H](O)[C@@H](C)/C=C/C=C/C=C/C=C/C=C/C=C/C=C/[C@H](O[C@@H]2O[C@H](C)[C@@H](O)[C@H](NC(=O)[C@H](N)Cc3cccnc3)[C@@H]2O)C[C@@H]2O[C@](O)(C[C@@H](O)C[C@@H](O)[C@H](O)CC[C@@H](O)C[C@@H](O)CC(=O)O[C@H]1C)C[C@H](O)[C@H]2C(=O)O ; what IC50 (cytotoxic activity) value has been reported?
Given back: >100 µg/mL

Asked: Suppose we examine the compound C[C@@H]1[C@H](O)[C@@H](C)/C=C/C=C/C=C/C=C/C=C/C=C/C=C/[C@H](O[C@@H]2O[C@H](C)[C@@H](O)[C@H](NC(=S)NCCN3CCCC3)[C@@H]2O)C[C@@H]2O[C@](O)(C[C@@H](O)C[C@@H](O)[C@H](O)CC[C@@H](O)C[C@@H](O)CC(=O)O[C@H]1C)C[C@H](O)[C@H]2C(=O)O ; what IC50 (cytotoxic activity) value has been reported?
Given back: >100 µg/mL

Asked: Suppose we examine the compound C[C@@H]1[C@H](O)[C@@H](C)/C=C/C=C/C=C/C=C/C=C/C=C/C=C/[C@H](O[C@@H]2O[C@H](C)[C@@H](O)[C@H](NC(=O)[C@@H](N)Cc3ccc([N+](=O)[O-])cc3)[C@@H]2O)C[C@@H]2O[C@](O)(C[C@@H](O)C[C@@H](O)[C@H](O)CC[C@@H](O)C[C@@H](O)CC(=O)O[C@H]1C)C[C@H](O)[C@H]2C(=O)O ; what IC50 (cytotoxic activity) value has been reported?
Given back: >100 µg/mL

----------
Test system: Human erythrocytes
Experiment: hemotoxicity determination (hemolytic activity)
Assay type: cell-based
Measurement name: Hemotoxi EH50

Asked: Hello, I am looking for reported Hemotoxi EH50 with Human erythrocytes for C[C@@H]1[C@H](O)[C@@H](C)/C=C/C=C/C=C/C=C/C=C/C=C/C=C/[C@H](O[C@@H]2O[C@H](C)[C@@H](O)[C@H](NC(=O)[C@H](N)Cc3cccnc3)[C@@H]2O)C[C@@H]2O[C@](O)(C[C@@H](O)C[C@@H](O)[C@H](O)CC[C@@H](O)C[C@@H](O)CC(=O)O[C@H]1C)C[C@H](O)[C@H]2C(=O)O . Could you help?
Given back: >100 µg/mL

Asked: Hello, I am looking for reported Hemotoxi EH50 with Human erythrocytes for C[C@@H]1[C@H](O)[C@@H](C)/C=C/C=C/C=C/C=C/C=C/C=C/C=C/[C@H](O[C@@H]2O[C@H](C)[C@@H](O)[C@H](NC3CC(=O)N(CC(C)(C)CN(C)C)C3=O)[C@@H]2O)C[C@@H]2O[C@](O)(C[C@@H](O)C[C@@H](O)[C@H](O)CC[C@@H](O)C[C@@H](O)CC(=O)O[C@H]1C)C[C@H](O)[C@H]2C(=O)O (stereo partly drawn) . Could you help?
Given back: >100 µg/mL

Asked: Hello, I am looking for reported Hemotoxi EH50 with Human erythrocytes for Cc1cc(C)c(N2C(=O)CC(N[C@@H]3[C@H](O)[C@H](O[C@H]4/C=C/C=C/C=C/C=C/C=C/C=C/C=C/[C@H](C)[C@@H](O)[C@@H](C)[C@H](C)OC(=O)C[C@H](O)C[C@H](O)CC[C@@H](O)[C@H](O)C[C@H](O)C[C@]5(O)C[C@H](O)[C@@H](C(=O)O)[C@H](C4)O5)O[C@H](C)[C@H]3O)C2=O)c(C)c1 (stereo partly drawn) . Could you help?
Given back: >100 µg/mL
